- Tested on: Rattus norvegicus
- Assay summary: Percentage of fall in systolic blood pressure (SBP) at the following hours after dosing at 75 mg/kg (po) at 7.5 hr in spontaneously hypertensive rats(SHR)
- Assay type: functional, Artery
Task for the reader: assign each of the following compounds its reported Decrease in SBP.
Note: a bare number is incomplete; add the unit.

For record CCC(C)NCC(O)COc1ccc2c(=O)c(-c3ccccc3)c(-c3ccccc3)oc2c1 (stereo unspecified) the listed Decrease in SBP is 19%

According to the records, this compound Cl.O=c1c(-c2ccccc2)c(-c2ccccc2)oc2cc(OCC(O)CNC3CCCC3)ccc12 (stereo unspecified) displays Decrease in SBP of 23%

Per the record, CCCCNCC(O)COc1ccc2c(=O)c(-c3ccccc3)c(-c3ccccc3)oc2c1 (stereo unspecified) has Decrease in SBP of 11%

The compound listed as C=CCNCC(O)COc1ccc2c(=O)c(-c3ccccc3)c(-c3ccccc3)oc2c1 (stereo unspecified) shows Decrease in SBP equal to 11%

Value of measured Decrease in SBP for the entry O=c1c(-c2ccccc2)c(-c2ccccc2)oc2cc(OCC(O)CNC3CCCCC3)ccc12 (stereo unspecified) : 13%

Entry CCCN(C)CC(O)COc1ccc2c(=O)c(-c3ccccc3)c(-c3ccccc3)oc2c1.O=C(O)/C=C\C(=O)O (stereo unspecified) — recorded Decrease in SBP = 10%
